- procedure-details: Therapeutic index, ratio of TD50 for HFF cells to IC50 for Toxoplasma gondii F2
- Format: cell-based
- assay-setup: human, read-out: TI
Reported selectivity ratio values for the following compounds.
assay-endpoint: selectivity ratio

smiles-structure: CC1=C(C(=O)NCc2ccc(C)cc2)O[C@@H]2O[C@@]3(C)CC[C@H]4[C@H](C)CC[C@@H]1[C@@]24OO3
assay-endpoint: selectivity ratio
assay-result: 331
--
smiles-structure: CC1=C(C(=O)NCc2cc(Br)cc(Br)c2)O[C@@H]2O[C@@]3(C)CC[C@H]4[C@H](C)CC[C@@H]1[C@@]24OO3
assay-endpoint: selectivity ratio
assay-result: 694
--
smiles-structure: CC1=C(C(=O)NCc2ccc(C(F)(F)F)cc2)O[C@@H]2O[C@@]3(C)CC[C@H]4[C@H](C)CC[C@@H]1[C@@]24OO3
assay-endpoint: selectivity ratio
assay-result: 1650

* * *

- procedure-details: Cytotoxicity against HFF after 5 days by CellTiter 96 Aqueous One Solution assay
- assay-setup: human, HFF cells; read-out: TD50

smiles-structure: CC1=C(C(=O)NCc2cc(Br)cc(Br)c2)O[C@@H]2O[C@@]3(C)CC[C@H]4[C@H](C)CC[C@@H]1[C@@]24OO3
CC50 at 120 h: ≥ 320 µM

smiles-structure: CC1=C(c2nc(C)cs2)O[C@@H]2O[C@@]3(C)CC[C@H]4[C@H](C)CC[C@@H]1[C@@]24OO3
CC50 at 120 h: ≥ 320 µM

smiles-structure: CSc1ccc(-c2csc(C3=C(C)[C@@H]4CC[C@@H](C)[C@@H]5CC[C@@]6(C)OO[C@@]45[C@H](O3)O6)n2)cc1
CC50 at 120 h: ≥ 320 µM

smiles-structure: CC1=C(C(=O)NCc2ccccc2)O[C@@H]2O[C@@]3(C)CC[C@H]4[C@H](C)CC[C@@H]1[C@@]24OO3
CC50 at 120 h: ≥ 320 µM

smiles-structure: CCN(CC)C(=O)C1=C(C)[C@@H]2CC[C@@H](C)[C@@H]3CC[C@@]4(C)OO[C@@]23[C@H](O1)O4
CC50 at 120 h: 23 µM

smiles-structure: CC1=C(C(=O)NCc2ccc(C)cc2)O[C@@H]2O[C@@]3(C)CC[C@H]4[C@H](C)CC[C@@H]1[C@@]24OO3
CC50 at 120 h: 169 µM

smiles-structure: C[C@@H]1CC[C@H]2[C@@H](C)C(=O)O[C@@H]3O[C@@]4(C)CC[C@@H]1[C@]32OO4
CC50 at 120 h: ≥ 320 µM

smiles-structure: CC1=C(C(=O)NCc2ccc(F)c(F)c2)O[C@@H]2O[C@@]3(C)CC[C@H]4[C@H](C)CC[C@@H]1[C@@]24OO3
CC50 at 120 h: 78 µM

smiles-structure: CC1=C(C(=O)NCc2ccc(C(F)(F)F)cc2)O[C@@H]2O[C@@]3(C)CC[C@H]4[C@H](C)CC[C@@H]1[C@@]24OO3
CC50 at 120 h: ≥ 320 µM

smiles-structure: CC1=C(c2nc(-c3ccc(C)cc3)cs2)O[C@@H]2O[C@@]3(C)CC[C@H]4[C@H](C)CC[C@@H]1[C@@]24OO3
CC50 at 120 h: ≥ 320 µM

smiles-structure: CC1=C(c2nc(C)no2)O[C@@H]2O[C@@]3(C)CC[C@H]4[C@H](C)CC[C@@H]1[C@@]24OO3
CC50 at 120 h: ≥ 320 µM

smiles-structure: CCc1csc(C2=C(C)[C@@H]3CC[C@@H](C)[C@@H]4CC[C@@]5(C)OO[C@@]34[C@H](O2)O5)n1
CC50 at 120 h: ≥ 320 µM

smiles-structure: CC1=C(c2nc(-c3ccccc3)no2)O[C@@H]2O[C@@]3(C)CC[C@H]4[C@H](C)CC[C@@H]1[C@@]24OO3
CC50 at 120 h: 141 µM

smiles-structure: CC1=C(C(=O)NCc2cc(F)cc(F)c2)O[C@@H]2O[C@@]3(C)CC[C@H]4[C@H](C)CC[C@@H]1[C@@]24OO3
CC50 at 120 h: ≥ 320 µM

smiles-structure: CC1=C(c2ncc(C)s2)O[C@@H]2O[C@@]3(C)CC[C@H]4[C@H](C)CC[C@@H]1[C@@]24OO3
CC50 at 120 h: ≥ 320 µM

smiles-structure: COc1cc(Cc2cnc(N)nc2N)cc(OC)c1OC
CC50 at 120 h: ≥ 320 µM

smiles-structure: CC1=C(c2nc(C(C)(C)C)cs2)O[C@@H]2O[C@@]3(C)CC[C@H]4[C@H](C)CC[C@@H]1[C@@]24OO3
CC50 at 120 h: ≥ 320 µM

smiles-structure: CC1=C(c2nc(-c3ccc(S(C)(=O)=O)cc3)cs2)O[C@@H]2O[C@@]3(C)CC[C@H]4[C@H](C)CC[C@@H]1[C@@]24OO3
CC50 at 120 h: ≥ 320 µM

smiles-structure: CO[C@H]1O[C@@H]2O[C@@]3(C)CC[C@H]4[C@H](C)CC[C@@H]([C@H]1C)[C@@]24OO3
CC50 at 120 h: ≥ 320 µM

smiles-structure: CC1=C(C(=O)NCc2ccc(F)cc2)O[C@@H]2O[C@@]3(C)CC[C@H]4[C@H](C)CC[C@@H]1[C@@]24OO3
CC50 at 120 h: 72 µM

smiles-structure: CCNC(=O)C1=C(C)[C@@H]2CC[C@@H](C)[C@@H]3CC[C@@]4(C)OO[C@@]23[C@H](O1)O4
CC50 at 120 h: 259 µM

smiles-structure: CC1=C(c2nc(C)c(C)s2)O[C@@H]2O[C@@]3(C)CC[C@H]4[C@H](C)CC[C@@H]1[C@@]24OO3
CC50 at 120 h: 38 µM

smiles-structure: CC1=C(c2nccs2)O[C@@H]2O[C@@]3(C)CC[C@H]4[C@H](C)CC[C@@H]1[C@@]24OO3
CC50 at 120 h: ≥ 320 µM

smiles-structure: CC1=C(c2nc(-c3ccccc3)cs2)O[C@@H]2O[C@@]3(C)CC[C@H]4[C@H](C)CC[C@@H]1[C@@]24OO3
CC50 at 120 h: ≥ 320 µM

smiles-structure: CC1=C(c2nc(C3CCCCC3)cs2)O[C@@H]2O[C@@]3(C)CC[C@H]4[C@H](C)CC[C@@H]1[C@@]24OO3
CC50 at 120 h: 1.8 µM

smiles-structure: COc1ccc(-c2csc(C3=C(C)[C@@H]4CC[C@@H](C)[C@@H]5CC[C@@]6(C)OO[C@@]45[C@H](O3)O6)n2)cc1
CC50 at 120 h: 19 µM

smiles-structure: CNC(=O)C1=C(C)[C@@H]2CC[C@@H](C)[C@@H]3CC[C@@]4(C)OO[C@@]23[C@H](O1)O4
CC50 at 120 h: ≥ 320 µM

FYI, the data here is from ChEMBL document CHEMBL1158535.
